Recorded RARE Activity (%RA at 10 nM) for the following compounds
- System: human RARα (Homo sapiens)
- Construct: expressed in transfected cells; host or cells: HEK293 cells
- Sequence (P10276 whole entry): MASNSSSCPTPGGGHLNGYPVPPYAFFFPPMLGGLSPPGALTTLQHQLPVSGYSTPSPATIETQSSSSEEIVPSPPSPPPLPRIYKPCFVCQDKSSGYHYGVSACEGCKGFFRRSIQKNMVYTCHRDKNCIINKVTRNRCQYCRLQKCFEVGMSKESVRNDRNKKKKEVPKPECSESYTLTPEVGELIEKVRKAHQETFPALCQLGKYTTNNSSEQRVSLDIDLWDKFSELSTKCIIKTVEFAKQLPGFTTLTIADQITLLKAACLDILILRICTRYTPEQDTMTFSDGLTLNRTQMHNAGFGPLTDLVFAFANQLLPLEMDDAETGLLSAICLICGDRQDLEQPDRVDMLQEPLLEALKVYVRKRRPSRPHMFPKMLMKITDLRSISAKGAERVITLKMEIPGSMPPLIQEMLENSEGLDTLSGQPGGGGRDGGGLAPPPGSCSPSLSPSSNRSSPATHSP
- Measurement description: RARE-luciferase reporter assay in HEK293 cells
- Type: cell-based
- Measurement parameters: HEK293, all-trans-RA set to 100%
Could you give me the number in %RA? Just the number is fine.

> print(dat)
                                   compound                     system                      quantity  units  readout.value
1  CCN(c1ccc(C(=O)O)cc1)c1ccc(OCC(C)C)c(C(C)C)c1 [Compound 30]  human RARα (Homo sapiens)  RARE Activity (%RA at 10 nM)    %RA            1.1

Noted for C=C(c1ncc(C(=O)O)cn1)c1cc2c(cc1C)C(C)(C)CC2(C)C [Compound 32] : its RARE Activity (%RA at 10 nM) reads 12.9

Noted for CCN(c1ccc(OCC(C)C)c(C(C)C)c1)c1ccc(C(=O)O)cn1 [Compound 25, reference compound] : its RARE Activity (%RA at 10 nM) reads 2.9

Noted for CCN(c1ccc(OCC(C)C)c(C(C)C)c1)c1ncc(C(=O)O)cn1 [Compound 28] : its RARE Activity (%RA at 10 nM) reads 1.6

Noted for C=C(c1ccc2c(c1)C(C)(C)CCC2(C)C)c1ncc(C(=O)O)cn1 [Compound 34] : its RARE Activity (%RA at 10 nM) reads 10.3

Noted for CC(C)COc1ccc(-n2nnc3cc(C(=O)O)ccc32)cc1C(C)C [Compound 31] : its RARE Activity (%RA at 10 nM) reads 3.1

====

- System: RXR-LXR heterodimer (LXR/LXRE) (Homo sapiens, UniProt P19793)
- Construct: expressed in transfected cells; host or cells: HEK293 cells
- Sequence (P19793 whole entry): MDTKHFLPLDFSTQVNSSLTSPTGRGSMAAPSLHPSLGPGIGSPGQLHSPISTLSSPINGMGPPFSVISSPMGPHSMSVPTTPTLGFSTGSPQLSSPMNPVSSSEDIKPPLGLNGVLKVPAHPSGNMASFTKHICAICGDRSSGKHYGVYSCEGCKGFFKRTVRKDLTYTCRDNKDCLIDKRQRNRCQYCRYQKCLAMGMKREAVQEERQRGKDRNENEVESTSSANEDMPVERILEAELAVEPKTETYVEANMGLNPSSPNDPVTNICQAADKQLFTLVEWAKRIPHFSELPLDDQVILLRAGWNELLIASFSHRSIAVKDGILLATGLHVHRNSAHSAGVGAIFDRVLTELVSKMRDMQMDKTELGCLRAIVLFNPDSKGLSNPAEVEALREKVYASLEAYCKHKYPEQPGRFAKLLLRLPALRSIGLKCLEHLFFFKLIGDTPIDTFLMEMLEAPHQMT
- Sequence (Q13133 whole entry partner): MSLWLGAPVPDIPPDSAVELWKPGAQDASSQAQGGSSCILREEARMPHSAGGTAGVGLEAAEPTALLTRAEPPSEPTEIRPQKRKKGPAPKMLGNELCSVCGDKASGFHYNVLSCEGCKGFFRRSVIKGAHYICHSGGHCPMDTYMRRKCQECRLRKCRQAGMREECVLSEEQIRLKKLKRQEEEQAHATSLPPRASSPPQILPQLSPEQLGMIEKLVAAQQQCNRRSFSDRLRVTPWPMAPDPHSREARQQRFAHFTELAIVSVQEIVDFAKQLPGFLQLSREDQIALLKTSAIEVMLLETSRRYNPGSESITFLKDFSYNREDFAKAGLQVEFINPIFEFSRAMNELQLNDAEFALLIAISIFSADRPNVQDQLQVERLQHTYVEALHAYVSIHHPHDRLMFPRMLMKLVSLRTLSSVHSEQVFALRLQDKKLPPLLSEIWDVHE
- Measurement description: LXRE-luciferase transactivation assay in HEK293 cells
- Assay type: cell-based
- Measurement parameters: 100 nM compound alone, HEK293, bexarotene (1) set to 100%
Quantity: LXRE Activity (% of Bex)

> print(dat)
                                   molecule  readout.value
1  Cc1cc2c(cc1C1(c3ncc(C(=O)O)cn3)CC1)C(C)(C)CC2(C)C  50.9 % of Bex
2  C=C(c1ncc(C(=O)O)cn1)c1cc2c(cc1C)C(C)(C)CC2(C)C  46.0 % of Bex
3  C=C(c1ccc(C(=O)O)cc1)c1ccc2c(c1)C(C)(C)CCC2(C)C [Compound 27, reference compound]  82.4 % of Bex

Noted for C=C(c1ccc2c(c1)C(C)(C)CCC2(C)C)c1ncc(C(=O)O)cn1 : its LXRE Activity (% of Bex) reads 77.6 % of Bex

====

- System: RXRα (Homo sapiens, UniProt P19793)
- Construct: expressed in transfected cells; host or cells: UAS-GFP x KMT2A-MLLT3 cells (retroviral transduction)
- Sequence (P19793 227-458 limits assumed): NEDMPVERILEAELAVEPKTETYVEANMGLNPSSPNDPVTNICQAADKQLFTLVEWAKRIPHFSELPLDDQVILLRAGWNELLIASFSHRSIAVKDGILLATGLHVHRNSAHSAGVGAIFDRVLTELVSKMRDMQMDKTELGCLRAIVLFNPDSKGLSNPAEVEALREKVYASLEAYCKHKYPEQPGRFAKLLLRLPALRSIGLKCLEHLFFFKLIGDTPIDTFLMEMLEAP
- Measurement description: UAS/Gal4 GFP reporter assay of RXRα activation in UAS-GFP x KMT2A-MLLT3 cells
- Type: cell-based
- Measurement parameters: RXRα activation; value (SD); Table 1 does not say whether GFP or Luc assay; read-out: EC50 (nM) +/−(SD)
Label yes when EC50 is strictly below 300 nM; at or above that, label no.

Recorded results for 3 molecules are shown here.
> print(dat)
                                   molecule  qualitative.label
1  CCN(c1ccc(OCC(C)C)c(C(C)C)c1)c1ccc(C(=O)O)cn1 [Compound 25, reference compound]                yes
2  CC1(C)CCC(C)(C)c2cc(C3(c4ncc(C(=O)O)cn4)CC3)ccc21                yes
3  C=C(c1ccc(C(=O)O)c(O)c1)c1ccc2c(c1)C(C)(C)CCC2(C)C [Compound 37b]                 no

Asked: is_below(EC50, 300 nM) for CC(C)COc1ccc(-n2nnc3cc(C(=O)O)ccc32)cc1C(C)C ?
Given back: no

Asked: is_below(EC50, 300 nM) for C=C(c1ccc2c(c1)C(C)(C)CCC2(C)C)c1ncc(C(=O)O)cn1 ?
Given back: yes

Asked: is_below(EC50, 300 nM) for C=C(c1ccc(C(=O)O)c(F)c1)c1ccc2c(c1)C(C)(C)CCC2(C)C ?
Given back: no

Asked: is_below(EC50, 300 nM) for C=C(c1ncc(C(=O)O)cn1)c1cc2c(cc1C)C(C)(C)CC2(C)C ?
Given back: yes

Asked: is_below(EC50, 300 nM) for Cc1cc2c(cc1C1(c3ncc(C(=O)O)cn3)CC1)C(C)(C)CC2(C)C ?
Given back: yes
